# Tested on: strains TA98
# Type: cell-based
# conditionNotes: TA98, S-9 (-), 5000 μg/plate
Reported Ames test: ratio of the number of colonies to control values for a set of molecules
Reply with just the number.

A selection of reference data follows.
1) Nc1ccc(N=Nc2ccc(N(c3ccccc3)c3ccc(N=Nc4c(S(=O)(=O)O)cc5cc(S(=O)(=O)O)c(N=Nc6ccccc6)c(O)c5c4N)cc3)cc2)c(O)c1 :: 0.77
2) Nc1ccc(N=Nc2ccc(N=Nc3c(S(=O)(=O)[O-])cc4cc(S(=O)(=O)[O-])c(N=Nc5ccc(N=Nc6ccc(N)cc6N)cc5)c(O)c4c3N)cc2)c(N)c1.[Na+].[Na+] [compound 2, C.I. Direct Black 19, reference compound] :: 2.84
3) CCCCCCCCN(c1ccc(N=Nc2ccc(N)cc2O)cc1)c1ccc(N=Nc2c(S(=O)(=O)O)cc3cc(S(=O)(=O)O)c(N=Nc4ccc(S(=O)(=O)O)cc4)c(O)c3c2N)cc1 :: 1.02
4) Cc1cc(-c2ccc(N=Nc3c(S(=O)(=O)[O-])cc4cc(S(=O)(=O)[O-])c(N=Nc5ccccc5)c(O)c4c3N)c(C)c2)ccc1N=Nc1ccc(N)cc1N.[Na+].[Na+] [compound 3, C.I. Direct Black 154, reference compound] :: 0.96
5) Nc1ccc(N=Nc2ccc(N(c3ccccc3)c3ccc(N=Nc4c(S(=O)(=O)O)cc5cc(S(=O)(=O)O)c(N=Nc6ccc(S(=O)(=O)O)cc6)c(O)c5c4N)cc3)cc2)c(O)c1 :: 1.02
6) CN(c1ccc(N=Nc2ccc(N)cc2O)cc1)c1ccc(N=Nc2c(S(=O)(=O)O)cc3cc(S(=O)(=O)O)c(N=Nc4ccccc4)c(O)c3c2N)cc1 :: 1.65
7) Nc1ccc(N=Nc2ccc(Nc3ccc(N=Nc4c(S(=O)(=O)O)cc5cc(S(=O)(=O)O)c(N=Nc6ccccc6)c(O)c5c4N)cc3S(=O)(=O)O)cc2)c(O)c1 [compound 1, C.I. Direct Black 168, reference compound] :: 0.88
8) CCCCCCN(c1ccc(N=Nc2ccc(N)cc2O)cc1)c1ccc(N=Nc2c(S(=O)(=O)O)cc3cc(S(=O)(=O)O)c(N=Nc4ccccc4C)c(O)c3c2N)cc1 :: 0.94

Ames test: ratio of the number of colonies to control recorded for this molecule, CCC(C)c1ccc(N=Nc2c(S(=O)(=O)O)cc3cc(S(=O)(=O)O)c(N=Nc4ccc(N(c5ccccc5)c5ccc(N=Nc6ccc(O)cc6O)cc5)cc4)c(N)c3c2O)cc1 (centres unmarked) , is 0.70

So, CCCCN(c1ccc(N=Nc2ccc(N)cc2O)cc1)c1ccc(N=Nc2c(S(=O)(=O)O)cc3cc(S(=O)(=O)O)c(N=Nc4ccc(C(C)CC)cc4)c(O)c3c2N)cc1 (centres unmarked) ? Its Ames test: ratio of the number of colonies to control was 1.60

The recorded Ames test: ratio of the number of colonies to control for entry `Cc1ccc(N(c2ccc(N=Nc3ccc(O)cc3O)cc2)c2ccc(N=Nc3c(S(=O)(=O)O)cc4cc(S(=O)(=O)O)c(N=Nc5ccccc5)c(O)c4c3N)cc2)cc1` equals 1.18

###

# Test system: strains TA98
# Format: cell-based
# conditionNotes: TA98, S-9 (+), 5000 μg/plate
# Protocol: Further, the trisazo dye of the present invention is a nontoxic trisazo dye which gives negative results in a back mutation test using an organism, which is generally known as a test method for evaluating toxicity, i.e. AMES test (mutation test). […] Regarding various specimen solutions respectively containing a trisazo dyes obtained in Examples 1 to 8 of the present invention and dyes of Comparative Examples 1 to 3, the number of mutant colonies was determined using strains TA98. […]
A collection of compounds and their measured Ames test: ratio of the number of colonies to control
I only need the number, thanks.

Examples from the recorded data:
1) Nc1ccc(N=Nc2ccc(N=Nc3c(S(=O)(=O)[O-])cc4cc(S(=O)(=O)[O-])c(N=Nc5ccc(N=Nc6ccc(N)cc6N)cc5)c(O)c4c3N)cc2)c(N)c1.[Na+].[Na+] [compound 2, C.I. Direct Black 19, reference compound] :: 4.00
2) CN(c1ccc(N=Nc2ccc(N)cc2O)cc1)c1ccc(N=Nc2c(S(=O)(=O)O)cc3cc(S(=O)(=O)O)c(N=Nc4ccccc4)c(O)c3c2N)cc1 [Ex. 5] :: 1.20
3) Nc1ccc(N=Nc2ccc(N(c3ccccc3)c3ccc(N=Nc4c(S(=O)(=O)O)cc5cc(S(=O)(=O)O)c(N=Nc6ccccc6)c(O)c5c4N)cc3)cc2)c(O)c1 [Ex. 1] :: 0.29
4) CCCCCCCCN(c1ccc(N=Nc2ccc(N)cc2O)cc1)c1ccc(N=Nc2c(S(=O)(=O)O)cc3cc(S(=O)(=O)O)c(N=Nc4ccc(S(=O)(=O)O)cc4)c(O)c3c2N)cc1 [Ex. 8] :: 0.91
5) Cc1ccc(N(c2ccc(N=Nc3ccc(O)cc3O)cc2)c2ccc(N=Nc3c(S(=O)(=O)O)cc4cc(S(=O)(=O)O)c(N=Nc5ccccc5)c(O)c4c3N)cc2)cc1 [Ex. 2] :: 0.87

Consider the record given below.
The recorded Ames test: ratio of the number of colonies to control for entry CCCCN(c1ccc(N=Nc2ccc(N)cc2O)cc1)c1ccc(N=Nc2c(S(=O)(=O)O)cc3cc(S(=O)(=O)O)c(N=Nc4ccc(C(C)CC)cc4)c(O)c3c2N)cc1 (stereo not drawn) [Ex. 6] equals 1.33

###

# Tested on: strains TA98
# Assay type: cell-based
# conditionNotes: TA98, S-9 (-), 1250 μg/plate
Ames test: ratio of the number of colonies to control below 0.9 gives Criterion not met; Ames test: ratio of the number of colonies to control at or above it gives Criterion met.

Worked set:
1. CCC(C)c1ccc(N=Nc2c(S(=O)(=O)O)cc3cc(S(=O)(=O)O)c(N=Nc4ccc(N(c5ccccc5)c5ccc(N=Nc6ccc(O)cc6O)cc5)cc4)c(N)c3c2O)cc1 (centres unmarked) :: Criterion not met
2. Nc1ccc(N=Nc2ccc(N=Nc3c(S(=O)(=O)[O-])cc4cc(S(=O)(=O)[O-])c(N=Nc5ccc(N=Nc6ccc(N)cc6N)cc5)c(O)c4c3N)cc2)c(N)c1.[Na+].[Na+] [compound 2, C.I. Direct Black 19, reference compound] :: Criterion met
3. CCCCN(c1ccc(N=Nc2ccc(N)cc2O)cc1)c1ccc(N=Nc2c(S(=O)(=O)O)cc3cc(S(=O)(=O)O)c(N=Nc4ccc(C(C)CC)cc4)c(O)c3c2N)cc1 (centres unmarked) :: Criterion met

Query string: Say whether Cc1cc(-c2ccc(N=Nc3c(S(=O)(=O)[O-])cc4cc(S(=O)(=O)[O-])c(N=Nc5ccccc5)c(O)c4c3N)c(C)c2)ccc1N=Nc1ccc(N)cc1N.[Na+].[Na+] [compound 3, C.I. Direct Black 154, reference compound] shows Ames test: ratio of the number of colonies to control of 0.9 or more.
Result string: Criterion not met

Query string: Kindly determine if Ames test: ratio of the number of colonies to control recorded for `CN(c1ccc(N=Nc2ccc(N)cc2O)cc1)c1ccc(N=Nc2c(S(=O)(=O)O)cc3cc(S(=O)(=O)O)c(N=Nc4ccccc4)c(O)c3c2N)cc1` is above or exactly 0.9.
Result string: Criterion met

###

Reported Ames test: ratio of the number of colonies to control is given for each of the following compounds.
# Tested on: strains TA98
# Format: cell-based
# conditionNotes: TA98, S-9 (+), 313 μg/plate

1. Nc1ccc(N=Nc2ccc(N=Nc3c(S(=O)(=O)[O-])cc4cc(S(=O)(=O)[O-])c(N=Nc5ccc(N=Nc6ccc(N)cc6N)cc5)c(O)c4c3N)cc2)c(N)c1.[Na+].[Na+] [compound 2, C.I. Direct Black 19, reference compound] :: 75.0
2. CCCCN(c1ccc(N=Nc2ccc(N)cc2O)cc1)c1ccc(N=Nc2c(S(=O)(=O)O)cc3cc(S(=O)(=O)O)c(N=Nc4ccc(C(C)CC)cc4)c(O)c3c2N)cc1 (stereo not drawn) [Ex. 6] :: 1.28
3. CN(c1ccc(N=Nc2ccc(N)cc2O)cc1)c1ccc(N=Nc2c(S(=O)(=O)O)cc3cc(S(=O)(=O)O)c(N=Nc4ccccc4)c(O)c3c2N)cc1 [Ex. 5] :: 1.44
4. CCCCCCCCN(c1ccc(N=Nc2ccc(N)cc2O)cc1)c1ccc(N=Nc2c(S(=O)(=O)O)cc3cc(S(=O)(=O)O)c(N=Nc4ccc(S(=O)(=O)O)cc4)c(O)c3c2N)cc1 [Ex. 8] :: 1.16
5. Nc1ccc(N=Nc2ccc(N(c3ccccc3)c3ccc(N=Nc4c(S(=O)(=O)O)cc5cc(S(=O)(=O)O)c(N=Nc6ccccc6)c(O)c5c4N)cc3)cc2)c(O)c1 [Ex. 1] :: 1.32

// switching to the query compound
Form field Ames test: ratio of the number of colonies to control, entry Cc1cc(-c2ccc(N=Nc3c(S(=O)(=O)[O-])cc4cc(S(=O)(=O)[O-])c(N=Nc5ccccc5)c(O)c4c3N)c(C)c2)ccc1N=Nc1ccc(N)cc1N.[Na+].[Na+] [compound 3, C.I. Direct Black 154, reference compound] : 2.50
